Biological target: UniProt Q14330
Sequence (Q14330 whole entry): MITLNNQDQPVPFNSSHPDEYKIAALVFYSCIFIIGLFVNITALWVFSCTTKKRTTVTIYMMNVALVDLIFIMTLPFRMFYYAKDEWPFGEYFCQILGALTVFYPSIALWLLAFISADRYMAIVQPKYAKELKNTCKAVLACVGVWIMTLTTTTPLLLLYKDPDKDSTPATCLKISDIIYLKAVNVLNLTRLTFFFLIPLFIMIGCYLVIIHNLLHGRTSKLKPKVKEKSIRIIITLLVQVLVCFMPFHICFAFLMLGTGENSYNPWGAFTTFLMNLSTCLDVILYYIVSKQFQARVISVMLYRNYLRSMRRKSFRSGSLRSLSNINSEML
Test: Antagonist activity at human GPR18 transfected in CHO cells assessed as delta9-THC-induced beta-arrestin recruitment incubated 60 mins prior to delta9-THC addition by beta-arrestin translocation assay
pIC50: −log10 of the molar value.
VALUE_TYPE: pIC50

Find the recorded pIC50 belonging to Cc1ccc(C(C)C)c2cc(Cc3ccccc3O)c(=O)oc12 and report it.
< 5.00

Next up: CCCCC1(c2cc(OC)c3cc(Cc4ccccc4OC)c(=O)oc3c2)CCCC1
< 5.00

Can you check CCCCCCC(C)(C)c1cc(O)c2cc(Cc3ccccc3O)c(=O)oc2c1 next?
4.80

How about CCCCCc1cc(OC)c2cc(Cc3ccc(Br)cc3)c(=O)oc2c1 ?
< 5.00

Also CCCCCCCC(C)(C)c1cc(OC)c2cc(Cc3ccccc3OC)c(=O)oc2c1 , if possible.
< 5.00

Now this one: COc1cccc(Cc2cc3c(OC)cc(Br)cc3oc2=O)c1
< 5.00

---

Biological target: G-protein coupled receptor 55 (Homo sapiens)
Sequence (Q9Y2T6 whole entry): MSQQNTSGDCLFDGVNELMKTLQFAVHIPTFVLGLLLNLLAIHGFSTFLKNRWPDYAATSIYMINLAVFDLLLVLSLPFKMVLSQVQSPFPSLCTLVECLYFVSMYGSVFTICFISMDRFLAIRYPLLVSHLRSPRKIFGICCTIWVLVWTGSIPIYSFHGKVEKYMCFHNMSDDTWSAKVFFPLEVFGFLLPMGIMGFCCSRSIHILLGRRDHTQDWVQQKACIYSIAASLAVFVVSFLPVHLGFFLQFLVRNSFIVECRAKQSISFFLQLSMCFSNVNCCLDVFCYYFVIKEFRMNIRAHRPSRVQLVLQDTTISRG
Experiment: Antagonist activity at human GPR55 transfected in CHO cells assessed as inhibition of LPI-induced beta-arrestin recruitment incubated 60 mins prior to LPI addition by beta-arrestin translocation assay
Assign log10 of IC50 to each entry below.
log10 IC50, µM

May I ask what log10 of IC50 has been recorded for Cc1c(O)c(C)c2cc(Cc3ccccc3)c(=O)oc2c1C ?
0.97

How about this compound: CCCCCCC(C)(C)c1cc(O)c2cc(Cc3ccccc3)c(=O)oc2c1
-0.45

Now the compound COc1cc(C)cc2oc(=O)c(Cc3ccccc3)cc12
0.83

Now give it for COc1c(C)c(C)c2oc(=O)c(Cc3ccccc3C)cc2c1C too.
0.89

Similarly, CCCCCc1cc(OC)c2cc(Cc3ccccc3OC)c(=O)oc2c1 ?
0.80

Cc1ccc(C(C)C)c2cc(Cc3ccccc3O)c(=O)oc12 ?
0.25

# repeat for COc1c(C)c(C)c2oc(=O)c(Cc3ccc(F)cc3)cc2c1C
1.13

Query CCCCC1(c2cc(O)c3cc(Cc4ccccc4O)c(=O)oc3c2)CCCCC1 next
-0.02

Another: Cc1cc2c(C(C)C)ccc(C)c2oc1=O
0.54

Now try COc1ccc2oc(=O)c(Cc3ccccc3)cc2c1 .
1.00

Please do the same for CCCCCc1cc(OC)c2cc(Cc3ccc(Cl)cc3)c(=O)oc2c1 as well.
0.52

# iterate: CCCCCCCC(C)(C)c1cc(O)c2cc(Cc3ccccc3O)c(=O)oc2c1
-0.95

Request: COc1cccc(Cc2cc3c(OC)cccc3oc2=O)c1
1.00

// query: COc1cccc(Cc2cc3c(OC)cc(Br)cc3oc2=O)c1
0.60

---

Target: Cannabinoid receptor 1 (Homo sapiens)
Test: Displacement of [3H]-CP55,940 from human CB1 receptor transfected in CHOK1 cells
pKi: −log10 of the molar value.
Provide the reported pKi of each item.

Report pKi for CCCCC1(c2cc(OC)c3cc(Cc4ccccc4OC)c(=O)oc3c2)CCCCC1 tested on Cannabinoid receptor 1 (Homo sapiens).
≤ 5.00

Same again, this time with Cc1c(O)c(C)c2cc(Cc3ccc(F)cc3)c(=O)oc2c1C
< 5.00

Next molecule up: COc1c(C)c(C)c2oc(=O)c(Cc3ccccc3C)cc2c1C
5.10

How about CCCCCc1cc(OC)c2cc(Cc3ccc(Br)cc3)c(=O)oc2c1 ?
4.99

Moving on to Cc1ccc(C(C)C)c2cc(Cc3ccccc3)c(=O)oc12
< 5.00

Next molecule: Cc1c(O)c(C)c2cc(Cc3ccccc3)c(=O)oc2c1C
< 5.00

Next entry: Cc1cc2c(C(C)C)ccc(C)c2oc1=O
< 5.00

Another molecule: CCCCCc1cc(OC)c2cc(Cc3ccc(Cl)cc3)c(=O)oc2c1
6.21

---

Biological target: Cannabinoid receptor 1 (Homo sapiens, UniProt P21554)
Sequence (P21554 whole entry): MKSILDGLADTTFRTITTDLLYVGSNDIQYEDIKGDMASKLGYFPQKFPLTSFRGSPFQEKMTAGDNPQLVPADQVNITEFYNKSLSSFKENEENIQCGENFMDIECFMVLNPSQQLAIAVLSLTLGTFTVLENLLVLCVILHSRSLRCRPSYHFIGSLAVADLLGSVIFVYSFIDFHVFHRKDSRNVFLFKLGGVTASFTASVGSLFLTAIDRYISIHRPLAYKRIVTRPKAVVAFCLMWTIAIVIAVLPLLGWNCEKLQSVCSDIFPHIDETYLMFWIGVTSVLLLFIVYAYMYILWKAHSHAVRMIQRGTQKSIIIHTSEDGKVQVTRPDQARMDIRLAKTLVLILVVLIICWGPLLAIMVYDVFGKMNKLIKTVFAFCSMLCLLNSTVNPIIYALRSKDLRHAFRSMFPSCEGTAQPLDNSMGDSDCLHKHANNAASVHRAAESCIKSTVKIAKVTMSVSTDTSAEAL
Assay: Displacement of [3H]-CP55,940 from human CB1 receptor transfected in CHOK1 cells at 10 uM
Assay type: cell-based
Settings: CHO-K1
VALUE_TYPE: Activity (%)
The response must be a number in % with no trailing unit.

If you can, please state the reported Activity value of Cc1c(O)c(C)c2cc(Cc3ccccc3)c(=O)oc2c1C .
21

Request: Cc1ccc(C(C)C)c2cc(Cc3ccccc3)c(=O)oc12
24

Please do the same for COc1c(C)c(C)c2oc(=O)c(Cc3ccccc3)cc2c1C as well.
42

What would you report for Cc1c(O)c(C)c2cc(Cc3ccc(F)cc3)c(=O)oc2c1C ?
34

Note, next up: Cc1ccccc1Cc1cc2c(C)c(O)c(C)c(C)c2oc1=O
45

Check COc1cc(C)cc2oc(=O)c(Cc3ccccc3)cc12 too.
45

Subsequent entry: COc1cccc(Cc2cc3c(OC)cc(Br)cc3oc2=O)c1
38

Could you do the same for COc1c(C)c(C)c2oc(=O)c(Cc3ccc(F)cc3)cc2c1C , please?
49

Another molecule to look at: CCCCC1(c2cc(OC)c3cc(Cc4ccccc4OC)c(=O)oc3c2)CCCCC1
42

---

For each of the compounds below, state its Activity.
Biological target: N-arachidonyl glycine receptor (Homo sapiens)
Test: Antagonist activity at human GPR18 transfected in CHO cells assessed as delta9-THC-induced beta-arrestin recruitment at 10 uM incubated 60 mins prior to delta9-THC addition by beta-arrestin translocation assay
Format: cell-based
Set-up: scale not given: the % may be the effect or the level left
Quick reminder: number only, in %, skip the unit.

Test system N-arachidonyl glycine receptor (Homo sapiens); read-out Activity; what value for CCCCC1(c2cc(O)c3cc(Cc4ccccc4O)c(=O)oc3c2)CCCC1 ?
57

// same read-out, input: CCCCC1(c2cc(OC)c3cc(Cc4ccccc4OC)c(=O)oc3c2)CCCCC1
33

Try this compound too: CCCCC1(c2cc(OC)c3cc(Cc4ccccc4OC)c(=O)oc3c2)CCCC1
25

Quick one: CCCCCc1cc(O)c2cc(Cc3ccccc3C)c(=O)oc2c1
10

---

Molecular target: Cannabinoid receptor 2 (Homo sapiens)
Sequence (P34972 whole entry): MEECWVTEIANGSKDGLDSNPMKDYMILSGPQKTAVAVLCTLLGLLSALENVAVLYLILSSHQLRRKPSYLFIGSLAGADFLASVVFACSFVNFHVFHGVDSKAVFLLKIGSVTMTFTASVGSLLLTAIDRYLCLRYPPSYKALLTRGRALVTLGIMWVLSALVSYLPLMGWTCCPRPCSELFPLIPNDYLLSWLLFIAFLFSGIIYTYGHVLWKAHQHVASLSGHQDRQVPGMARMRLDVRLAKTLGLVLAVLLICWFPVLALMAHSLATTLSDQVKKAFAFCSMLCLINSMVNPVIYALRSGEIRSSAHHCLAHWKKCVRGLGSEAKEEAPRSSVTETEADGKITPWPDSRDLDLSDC
Experiment: Displacement of [3H]-CP55,940 from human CB2 receptor transfected in CHOK1 cells
pKi: −log10 of the molar value.
VALUE_TYPE: pKi

Identify the measured pKi of Cc1ccc(C(C)C)c2cc(Cc3ccccc3)c(=O)oc12 for Cannabinoid receptor 2 (Homo sapiens).
< 5.00

Repeat for the following compound: CCCCC1(c2cc(OC)c3cc(Cc4ccccc4OC)c(=O)oc3c2)CCCCC1
≤ 5.00

Same question, COc1cc(C)cc2oc(=O)c(Cc3ccccc3)cc12 this time
≤ 5.00

---

Molecular target: G-protein coupled receptor 55 (Homo sapiens)
Test: Antagonist activity at human GPR55 transfected in CHO cells assessed as inhibition of LPI-induced beta-arrestin recruitment at 10 uM incubated 60 mins prior to LPI addition by beta-arrestin translocation assay
Type: cell-based
Set-up: scale not given: the % may be the effect or the level left
Class (by Activity) -- bottom range: < 20%; center range: ≥ 20% and < 40%; top range: ≥ 40%

Hello team, could you let me know which band the following molecule falls into: CCCCCCC(C)(C)c1cc(OC)c2cc(Cc3ccccc3OC)c(=O)oc2c1
center range

And then COc1ccc2oc(=O)c(Cc3ccccc3)cc2c1 , what is it?
top range

Entry CCCCCc1cc(O)c2cc(Cc3ccccc3Cl)c(=O)oc2c1 please
bottom range

How about this molecule: CCCCCc1cc(O)c2cc(Cc3ccccc3)c(=O)oc2c1
bottom range

Record: CCCCC1(c2cc(OC)c3cc(Cc4ccccc4OC)c(=O)oc3c2)CCCCC1
top range

Quick one: COc1cccc2oc(=O)c(Cc3ccccc3)cc12
top range

For COc1ccc(Br)c2oc(=O)c(Cc3ccccc3)cc12 then?
bottom range

Now give it for CCCCCCCC(C)(C)c1cc(OC)c2cc(Cc3ccccc3OC)c(=O)oc2c1 too.
center range

Proceed to O=c1oc2ccccc2cc1Cc1ccccc1
center range

Next record, please: Cc1cc2cc(Cl)cc(Br)c2oc1=O
top range

Continue with CCCCCCC(C)(C)c1cc(OC)c2cc(Cc3ccccc3)c(=O)oc2c1
top range
